assay: Plasma concentrations during 24-hour continuous intravenous infusion; assay type: in vivo, Sprague-Dawley rats; details: female, Sprague-Dawley, rat, plasma, iv, 30 mg/kg, female Sprague-Dawley rats; 24-hour intravenous infusion at 30 mg/kg; time 1 h; read-out: Plasma concentration, Mean
recordedMetric: concentration at 1 h (ng/mL)
Give the value in ng/mL but do not write ng/mL after it.

According to the records, this compound O=C(O)c1cc(-c2ccc(C3CCNCC3)cc2)c2ccc(-c3ccc(C(F)(F)F)cc3)cc2c1 displays concentration at 1 h of 641

* * *

experiment: Plasma concentrations during 24-hour continuous intravenous infusion; type: in vivo, Sprague-Dawley rats; conditions: male, Sprague-Dawley, rat, plasma, iv, 30 mg/kg, male Sprague-Dawley rats; 24-hour intravenous infusion at 30 mg/kg; time 24 h; read-out: Plasma concentration, Mean
recordedMetric: concentration at 24 h (ng/mL)
Give the value in ng/mL but do not write ng/mL after it.

According to the records, this molecule O=C(O)c1cc(-c2ccc(C3CCNCC3)cc2)c2ccc(-c3ccc(C(F)(F)F)cc3)cc2c1 [KB-1801] displays concentration at 24 h of 2830

* * *

assay: Plasma concentrations during 24-hour continuous intravenous infusion; type: in vivo, Sprague-Dawley rats; settings: female, Sprague-Dawley, rat, plasma, iv, 100 mg/kg, female Sprague-Dawley rats; 24-hour intravenous infusion at 100 mg/kg; time 8 h; read-out: Plasma concentration, individual animal
recordedMetric: concentration at 8 h (ng/mL)
Give the value in ng/mL but do not write ng/mL after it.

According to the records, this molecule O=C(O)c1cc(-c2ccc(C3CCNCC3)cc2)c2ccc(-c3ccc(C(F)(F)F)cc3)cc2c1 displays concentration at 8 h of 6390

* * *

assay: Plasma concentrations during 24-hour continuous intravenous infusion; assay type: in vivo, Sprague-Dawley rats; conditions: male, Sprague-Dawley, rat, plasma, iv, 100 mg/kg, male Sprague-Dawley rats; 24-hour intravenous infusion at 100 mg/kg; time 8 h; read-out: Plasma concentration, individual animal
recordedMetric: concentration at 8 h (ng/mL)
Give the value in ng/mL but do not write ng/mL after it.

According to the records, this compound O=C(O)c1cc(-c2ccc(C3CCNCC3)cc2)c2ccc(-c3ccc(C(F)(F)F)cc3)cc2c1 [KB-1801] displays concentration at 8 h of 6520

* * *

test: Plasma concentrations during 24-hour continuous intravenous infusion; type: in vivo, Sprague-Dawley rats; details: male, Sprague-Dawley, rat, plasma, iv, 10 mg/kg, male Sprague-Dawley rats; 24-hour intravenous infusion at 10 mg/kg; time 4 h; read-out: Plasma concentration, Mean
recordedMetric: concentration at 4 h (ng/mL)
Give the value in ng/mL but do not write ng/mL after it.

According to the records, this molecule O=C(O)c1cc(-c2ccc(C3CCNCC3)cc2)c2ccc(-c3ccc(C(F)(F)F)cc3)cc2c1 [KB-1801] displays concentration at 4 h of 378

* * *

assay: Plasma concentrations and TK parameters, 72-hour continuous intravenous infusion; format: in vivo, Sprague-Dawley rats; conditions: male, Sprague-Dawley, rat, plasma, iv, 10 mg/kg/day, male Sprague-Dawley rats; 72-hour intravenous infusion at 10 mg/kg/day; time 84 h; read-out: Plasma concentration, individual animal
recordedMetric: concentration at 84 h

According to the records, this molecule O=C(O)c1cc(-c2ccc(C3CCNCC3)cc2)c2ccc(-c3ccc(C(F)(F)F)cc3)cc2c1 displays concentration at 84 h of 86 ng/mL

* * *

assay: Plasma concentrations and TK parameters, 72-hour continuous intravenous infusion; assay type: in vivo, Sprague-Dawley rats; details: female, Sprague-Dawley, rat, plasma, iv, 30 mg/kg/day, female Sprague-Dawley rats; 72-hour intravenous infusion at 30 mg/kg/day; time 78 h; read-out: Plasma concentration, Mean
recordedMetric: concentration at 78 h (ng/mL)
Give the value in ng/mL but do not write ng/mL after it.

According to the records, this molecule O=C(O)c1cc(-c2ccc(C3CCNCC3)cc2)c2ccc(-c3ccc(C(F)(F)F)cc3)cc2c1 displays concentration at 78 h of 544

* * *

test: Plasma concentrations during 24-hour continuous intravenous infusion; type: in vivo, Sprague-Dawley rats; settings: female, Sprague-Dawley, rat, plasma, iv, 100 mg/kg, female Sprague-Dawley rats; 24-hour intravenous infusion at 100 mg/kg; time 24 h; read-out: Plasma concentration, individual animal
recordedMetric: concentration at 24 h (ng/mL)
Give the value in ng/mL but do not write ng/mL after it.

According to the records, this molecule O=C(O)c1cc(-c2ccc(C3CCNCC3)cc2)c2ccc(-c3ccc(C(F)(F)F)cc3)cc2c1 displays concentration at 24 h of 5590

* * *

experiment: Plasma concentrations during 24-hour continuous intravenous infusion; assay type: in vivo, Sprague-Dawley rats; conditions: female, Sprague-Dawley, rat, plasma, iv, 10 mg/kg, female Sprague-Dawley rats; 24-hour intravenous infusion at 10 mg/kg; time 8 h; read-out: Plasma concentration, individual animal
recordedMetric: concentration at 8 h (ng/mL)
Give the value in ng/mL but do not write ng/mL after it.

According to the records, this compound O=C(O)c1cc(-c2ccc(C3CCNCC3)cc2)c2ccc(-c3ccc(C(F)(F)F)cc3)cc2c1 displays concentration at 8 h of 678

* * *

assay: Plasma concentrations and TK parameters, 72-hour continuous intravenous infusion; assay type: in vivo, Sprague-Dawley rats; settings: male, Sprague-Dawley, rat, plasma, iv, 100 mg/kg, male Sprague-Dawley rats; 72-hour intravenous infusion at 100 mg/kg; time 84 h; read-out: Plasma concentration, Mean
recordedMetric: concentration at 84 h
Kindly report the value followed by its unit.

According to the records, this compound O=C(O)c1cc(-c2ccc(C3CCNCC3)cc2)c2ccc(-c3ccc(C(F)(F)F)cc3)cc2c1 displays concentration at 84 h of 2230 ng/mL

* * *

test: Plasma concentrations during 24-hour continuous intravenous infusion; type: in vivo, Sprague-Dawley rats; conditions: male, Sprague-Dawley, rat, plasma, iv, 100 mg/kg, male Sprague-Dawley rats; 24-hour intravenous infusion at 100 mg/kg; time 4 h; read-out: Plasma concentration, individual animal
recordedMetric: concentration at 4 h (ng/mL)
Give the value in ng/mL but do not write ng/mL after it.

According to the records, this molecule O=C(O)c1cc(-c2ccc(C3CCNCC3)cc2)c2ccc(-c3ccc(C(F)(F)F)cc3)cc2c1 displays concentration at 4 h of 3560

* * *

assay: Plasma concentrations and TK parameters, 72-hour continuous intravenous infusion; assay type: in vivo, Sprague-Dawley rats; settings: male, Sprague-Dawley, rat, plasma, iv, 30 mg/kg/day, male Sprague-Dawley rats; 72-hour intravenous infusion at 30 mg/kg/day; time 78 h; read-out: Plasma concentration, Mean
recordedMetric: concentration at 78 h (ng/mL)
Give the value in ng/mL but do not write ng/mL after it.

According to the records, this molecule O=C(O)c1cc(-c2ccc(C3CCNCC3)cc2)c2ccc(-c3ccc(C(F)(F)F)cc3)cc2c1 displays concentration at 78 h of 736

* * *

assay: Plasma concentrations and TK parameters, 72-hour continuous intravenous infusion; type: in vivo, Sprague-Dawley rats; details: female, Sprague-Dawley, rat, plasma, iv, 100 mg/kg/day, female Sprague-Dawley rats; 72-hour intravenous infusion at 100 mg/kg/day; time 96 h; read-out: Plasma concentration, individual animal
recordedMetric: concentration at 96 h (ng/mL)
Give the value in ng/mL but do not write ng/mL after it.

According to the records, this compound O=C(O)c1cc(-c2ccc(C3CCNCC3)cc2)c2ccc(-c3ccc(C(F)(F)F)cc3)cc2c1 displays concentration at 96 h of 288

* * *

Experiment: Plasma concentrations and TK parameters, 72-hour continuous intravenous infusion
Type: in vivo, Sprague-Dawley rats
Details: male, Sprague-Dawley, rat, plasma, iv, 10 mg/kg/day, male Sprague-Dawley rats; 72-hour intravenous infusion at 10 mg/kg/day; time 72 h; read-out: Plasma concentration, Mean
Description: The safety and pharmacokinetics of PPTN (KB-1801) in rats receiving continuous intravenous injections of SBECD-containing solutions were analyzed. Three cohorts of six male and six female rats each were given continuous intravenous infusion of PPTN (KB-1801) at 10 mg/kg/day, 30 mg/kg/day or 100 mg/kg/day in a dosing solution containing PPTN at 0.25 mg/mL, 0.75 mg/mL or 2.5 mg/mL and SBECD at about 3.8%. Dosing volume was 40 mIkg/day. [table]
recordedMetric: concentration at 72 h (ng/mL)
Give the value in ng/mL but do not write ng/mL after it.

According to the records, this compound O=C(O)c1cc(-c2ccc(C3CCNCC3)cc2)c2ccc(-c3ccc(C(F)(F)F)cc3)cc2c1 displays concentration at 72 h of 594

* * *

Experiment: Plasma concentrations during 24-hour continuous intravenous infusion
Type: in vivo, Sprague-Dawley rats
Settings: male, Sprague-Dawley, rat, plasma, iv, 30 mg/kg, male Sprague-Dawley rats; 24-hour intravenous infusion at 30 mg/kg; time 1 h; read-out: Plasma concentration, Mean
Method: The safety and pharmacokinetics of PPTN (KB-1801) in rats receiving continuous intravenous injections of SBECD-containing solutions were analyzed. Three cohorts of six male and six female rats each were given continuous intravenous infusion of PPTN (KB-1801) at 10 mg/kg/day, 30 mg/kg/day or 100 mg/kg/day in a dosing solution containing PPTN at 0.25 mg/mL, 0.75 mg/mL or 2.5 mg/mL and SBECD at about 3.8%. Dosing volume was 40 mIkg/day. [table]
recordedMetric: concentration at 1 h (ng/mL)
Give the value in ng/mL but do not write ng/mL after it.

According to the records, this compound O=C(O)c1cc(-c2ccc(C3CCNCC3)cc2)c2ccc(-c3ccc(C(F)(F)F)cc3)cc2c1 [KB-1801] displays concentration at 1 h of 1020
